# Tested on: HeLa S3 cells
# ASSAY PROTOCOL: HeLa S3 Cell Growth Inhibition Test
# Assay type: cell-based
# TEST PARAMETERS: Homo sapiens, HeLa S3, 72 h, HeLa S3; 72 hours incubation; Neutral Red; read-out: IC50, HeLa S3 cell growth inhibition
Classify: T when IC50 is strictly less than 40 nM; F when IC50 is not.

Sample answers from the record:
* C=C(CSC(=O)C(C)(O)C12CC/C(C)=C/C(OC3(OC)CCOCC3)C(=O)/C=C/C=C\c3csc(n3)C(C)N(C(=O)C1)[S+]2[O-])C(=O)OC (centres unmarked) [Compound 113] | F
* COCOCc1oc(=O)oc1CSC(=O)C(C)(O)C12CC/C(C)=C/C(O)C(=O)/C=C/C=C\c3csc(n3)C(C)N(C(=O)C1)[S+]2[O-] (centres unmarked) [Compound 77] | T
* CC1=C(CSC(=O)C(C)(O)C23CC/C(C)=C/C(O)C(=O)/C=C/C=C\c4csc(n4)C(C)N(C(=O)C2)[S+]3[O-])C(=O)OC(C)(C)O1 (centres unmarked) [Compound 121] | F
* CC(=O)OCc1oc(=O)oc1CSC(=O)C(C)(O)C12CC/C(C)=C/C(OC3CCCCO3)C(=O)/C=C/C=C\c3csc(n3)C(C)N(C(=O)C1)[S+]2[O-] (centres unmarked) [Compound 91] | F
* COCCOCC(=O)OCc1oc(=O)oc1CSC(=O)C(C)(O)C12CC/C(C)=C/C(OC3CCCCO3)C(=O)/C=C/C=C\c3csc(n3)C(C)N(C(=O)C1)[S+]2[O-] (centres unmarked) [Compound 100] | T

Please let me know if COC1(OC2/C=C(\C)CCC3(C(C)(O)C(=O)SCOC(=O)c4cccc(OC(C)=O)c4)CC(=O)N(C(C)c4nc(cs4)/C=C\C=C\C2=O)[S+]3[O-])CCOCC1 (centres unmarked) [Compound 55] shows IC50 below 40 nM.
T

Same for COCCOCCOCC(=O)OCc1oc(=O)oc1CSC(=O)C(C)(O)C12CC/C(C)=C/C(OC3CCCCO3)C(=O)/C=C/C=C\c3csc(n3)C(C)N(C(=O)C1)[S+]2[O-] (centres unmarked) [Compound 102]
T

Quick one: COC1(OC2/C=C(\C)CCC3(C(C)(O)C(=O)SCOC(=O)CNC(=O)OC(C)(C)C)CC(=O)N(C(C)c4nc(cs4)/C=C\C=C\C2=O)[S+]3[O-])CCOCC1 (centres unmarked) [Compound 39]
T

====

# Test system: EH: Enterococcus hirae ATCC 10541
# ASSAY PROTOCOL: Antimicrobial activity by the agar dilution method (MIC)
# Format: cell-based
# TEST PARAMETERS: pH 7
Record y whenever minimum inhibitory concentration (MIC), EH is at 3 µg/mL or higher; record n when lower.

# count of solved cases: 3
• C/C1=C\C(O)C(=O)/C=C/C=C\c2csc(n2)C(C)N2C(=O)CC(C(C)(O)C(=O)SCc3oc(=O)oc3CO)(CC1)[S+]2[O-] (centres unmarked) = n
• CC[Si](CC)(CC)OC[C@H]1OC(OCc2oc(=O)oc2CSC(=O)C(C)(O)C23CC/C(C)=C/C(OC4CCCCO4)C(=O)/C=C/C=C\c4csc(n4)C(C)N(C(=O)C2)[S+]3[O-])C[C@@H](O[Si](CC)(CC)CC)[C@@H]1O[Si](CC)(CC)CC (some centres unmarked) = y
• COCOCc1oc(=O)oc1CSC(=O)C(C)(O)C12CC/C(C)=C/C(O)C(=O)/C=C/C=C\c3csc(n3)C(C)N(C(=O)C1)[S+]2[O-] (centres unmarked) = n

Does the reported minimum inhibitory concentration (MIC), EH for C/C1=C\C(OC2CCCCO2)C(=O)/C=C/C=C\c2csc(n2)C(C)N2C(=O)CC(C(C)(O)C(=O)SCc3oc(=O)oc3COC3C[C@H](O[Si](C)(C)C(C)(C)C)[C@@H](O[Si](C)(C)C(C)(C)C)[C@H](C)O3)(CC1)[S+]2[O-] (some centres unmarked) fall at or above the 3 µg/mL mark?
y

Another compound to look at: COC(=O)[C@H](CCC(=O)OCSC(=O)C(C)(O)C12CC/C(C)=C/C(O)C(=O)/C=C/C=C\c3csc(n3)C(C)N(C(=O)C1)[S+]2[O-])NC(=O)[C@@]12O[C@@H](CO)[C@@H](O)[C@@H]1OC(C)(C)O2 (some centres unmarked)
y
